assay-overview: In vivo pharmacokinetics in plasma after oral gavage (PO) in male CD-1 mice
setup-conditions: mouse; single PO dose 5 mg/kg, male CD-1 mice, plasma; read-out: t½ (converted)
metric: half-life (h)

1. C[C@H](Oc1ccc(C(C)(C)c2cc(Cl)c(OCCCl)c(C#N)c2)cc1)c1ccnc(NS(C)(=O)=O)n1 (single isomer, unassigned) : 3

[a] CC(C)(c1ccc(OCc2ocnc2S(C)(=O)=O)cc1)c1cc(Cl)c(OCCCl)c(C#N)c1
[b] CC(C)(c1ccc(OCc2ocnc2S(C)(=O)=O)cc1)c1cc(Cl)c(OCCCl)c(Cl)c1
[c] CC(C)(c1ccc(OCc2ncc(S(C)(=O)=O)s2)cc1)c1cc(Cl)c(OCCCl)c(C#N)c1
[in] Provide the items ranked by increasing half-life. Return value: ordered labels per request.
[out] a, b, c
